# studyTarget: UniProtKB Q05397
# assayNotes: Cell-based capture ELISA for inhibition of FAK autophosphorylation [pY397] in MiaPaCa2 cells
# protocolConditions: MIA-PaCa2 cells on fibronectin, 2 h, no plasma; read-out: Mean FAK Cell Mechanistic IC50 MIA-PaCa2
# Protocol: Cell-Based Assays for Inhibition of FAK Autophosphorylation: MiaPaCa2 and U87MG ELISA kit from Invitrogen (KHO0441). Reagents Provided in Biosource FAK [pY397] The cells were then suspended in cell assay medium.
measuredQuantity: IC50

compound | measuredQuantity | experimentalResult
CCOP(=O)(O)c1ccc(Nc2ncc(C(F)(F)F)c(NCc3cccnc3N(C)S(C)(=O)=O)n2)cc1 | IC50 | 1 to 10 µM
CCCOP(=O)(Cc1ccc(Nc2ncc(C(F)(F)F)c(NCc3cccnc3N(C)S(C)(=O)=O)n2)cc1)OCCC | IC50 | < 1 µM
CCOP(C)(=O)Cc1ccc(Nc2ncc(C(F)(F)F)c(Nc3ccc(Br)c4c3C(=O)N(C)C4)n2)cc1 (stereo not shown) | IC50 | < 1 µM
CN(c1ncccc1CNc1nc(Nc2ccc(P(=O)(O)O)cc2)ncc1C(F)(F)F)S(C)(=O)=O | IC50 | 1 to 10 µM
CNC(=O)c1ccccc1Nc1nc(Nc2ccc(P(C)(C)=O)cc2)ncc1C(F)(F)F | IC50 | < 1 µM
CCOP(C)(=O)Cc1ccc(Nc2ncc(C(F)(F)F)c(Nc3ccc(C#CC(C)O)c4c3C(=O)N(C)C4)n2)cc1 (stereo not shown) | IC50 | < 1 µM
CC(C)P(=O)(Cc1ccc(Nc2ncc(C(F)(F)F)c(NCc3cccnc3N(C)S(C)(=O)=O)n2)cc1)C(C)C | IC50 | < 1 µM

###

# studyTarget: FAK (Homo sapiens)
# assayNotes: Cell-based capture ELISA for inhibition of FAK autophosphorylation [pY397] in MiaPaCa2 cells
# protocolConditions: MIA-PaCa2 cells on fibronectin, 2 h, no plasma; read-out: Mean FAK Cell Mechanistic IC50 MIA-PaCa2
As shown below, each of these compounds has a reported IC50 value.

compound | studyTarget | IC50
CCOP(=O)(Cc1ccccc1Nc1ncc(C(F)(F)F)c(NCc2cccnc2N(C)S(C)(=O)=O)n1)OCC [Example 3] | FAK (Homo sapiens) | > 10000 nM
CCOP(=O)(OCC)C(C)c1ccc(Nc2ncc(C(F)(F)F)c(NCc3cccnc3N(C)S(C)(=O)=O)n2)cc1 (stereo not shown) [Example 5] | FAK (Homo sapiens) | < 1000 nM
CCOP(=O)(Cc1cccc(Nc2ncc(C(F)(F)F)c(NCc3cccnc3N(C)S(C)(=O)=O)n2)c1)OCC [Example 4] | FAK (Homo sapiens) | 1000 to 10000 nM
CCOP(C)(=O)Cc1ccc(Nc2ncc(C(F)(F)F)c(Nc3ccccc3C(=O)NC)n2)cc1 (stereo not shown) [Example 22] | FAK (Homo sapiens) | < 1000 nM
CCC(C)OP(=O)(Cc1ccc(Nc2ncc(C(F)(F)F)c(NCc3cccnc3N(C)S(C)(=O)=O)n2)cc1)OC(C)CC (stereo not shown) [Example 29] | FAK (Homo sapiens) | < 1000 nM
CCOP(C)(=O)Cc1ccc(Nc2ncc(C(F)(F)F)c(Nc3ccc(C#CCO)c4c3C(=O)N(C)C4)n2)cc1 (stereo not shown) [Example 77] | FAK (Homo sapiens) | < 1000 nM
CCOP(=O)(Cc1ccc(Nc2ncc(C(F)(F)F)c(Nc3ccccc3C(=O)NC)n2)c(OC)c1)OCC [Ex. 53] | FAK (Homo sapiens) | < 1000 nM
CCOP(C)(=O)Cc1ccc(Nc2ncc(C(F)(F)F)c(Nc3ccc(C(C)C)c4c3C(=O)N(C)C4)n2)cc1 (stereo not shown) [Example 78] | FAK (Homo sapiens) | < 1000 nM
CC(C)OP(=O)(Cc1ccc(Nc2ncc(C(F)(F)F)c(NCc3cccnc3N(C)S(C)(=O)=O)n2)cc1)OC(C)C [Example 27] | FAK (Homo sapiens) | 1000 to 10000 nM
CNC(=O)c1ccccc1Nc1nc(Nc2ccc(CP(C)(C)=O)cc2)ncc1C(F)(F)F [Example 16] | FAK (Homo sapiens) | < 1000 nM
CCOP(C)(=O)Cc1ccc(Nc2ncc(C(F)(F)F)c(Nc3ccc(-c4cn[nH]c4)c4c3C(=O)N(C)C4)n2)cc1 (stereo not shown) [Example 67] | FAK (Homo sapiens) | < 1000 nM
CCP(=O)(CC)Cc1cccc(Nc2ncc(C(F)(F)F)c(NCc3cccnc3N(C)S(C)(=O)=O)n2)c1 [Example 11] | FAK (Homo sapiens) | < 1000 nM
CN(c1ncccc1CNc1nc(Nc2ccc(CP3(=O)OCC(C)(C)CO3)cc2)ncc1C(F)(F)F)S(C)(=O)=O [Example 32] | FAK (Homo sapiens) | < 1000 nM
CCOP(=O)(Cc1ccc(Nc2ncc(C(F)(F)F)c(Nc3ccccc3C(=O)NC)n2)cc1)OCC [Example 20] | FAK (Homo sapiens) | < 1000 nM
CCOP(=O)(Cc1ccc(Nc2ncc(C(F)(F)F)c(Nc3ccc(Br)c4c3C(=O)N(C)C4)n2)c(OC)c1)OCC [Example 62] | FAK (Homo sapiens) | < 1000 nM
C=C(C)c1ccc(Nc2nc(Nc3ccc(CP(C)(=O)OCC)cc3)ncc2C(F)(F)F)c2c1CN(C)C2=O (stereo not shown) [Example 68] | FAK (Homo sapiens) | < 1000 nM
CCOP(C)(=O)Cc1ccc(Nc2ncc(C(F)(F)F)c(Nc3ccc(-c4cnn(C)c4)c4c3C(=O)N(C)C4)n2)cc1 (stereo not shown) [Example 63] | FAK (Homo sapiens) | < 1000 nM
CCOP(=O)(OCC)C(C)(C)c1ccc(Nc2ncc(C(F)(F)F)c(NCc3cccnc3N(C)S(C)(=O)=O)n2)cc1 [Example 7] | FAK (Homo sapiens) | < 1000 nM
CCOP(C)(=O)Cc1ccc(Nc2ncc(C(F)(F)F)c(Nc3ccc(N4CCC(O)C4)c4c3C(=O)N(C)C4)n2)cc1 (stereo not shown) [Example 81] | FAK (Homo sapiens) | < 1000 nM
CCOP(C)(=O)Cc1ccc(Nc2ncc(C(F)(F)F)c(Nc3ccc(-c4cnn(CCO)c4)c4c3C(=O)N(C)C4)n2)cc1 (stereo not shown) [Example 64] | FAK (Homo sapiens) | < 1000 nM
CCOP(C)(=O)Cc1ccc(Nc2ncc(C(F)(F)F)c(Nc3ccc(C4CCC(O)CC4)c4c3C(=O)N(C)C4)n2)cc1 (stereo not shown) [Example 79] | FAK (Homo sapiens) | < 1000 nM
CN(c1ncccc1CNc1nc(Nc2cccc(CP(C)(C)=O)c2)ncc1C(F)(F)F)S(C)(=O)=O [Example 13] | FAK (Homo sapiens) | < 1000 nM
CN(c1ncccc1CNc1nc(Nc2ccc(P3(=O)OCC(C)(C)CO3)cc2)ncc1C(F)(F)F)S(C)(=O)=O [Example 60] | FAK (Homo sapiens) | < 1000 nM
CCCCOP(=O)(Cc1ccc(Nc2ncc(C(F)(F)F)c(NCc3cccnc3N(C)S(C)(=O)=O)n2)cc1)OCCCC [Example 26] | FAK (Homo sapiens) | < 1000 nM
COP(=O)(Cc1cccc(Nc2ncc(C(F)(F)F)c(NCc3cccnc3N(C)S(C)(=O)=O)n2)c1)OC [Example 56] | FAK (Homo sapiens) | < 1000 nM
CC(C)COP(=O)(Cc1ccc(Nc2ncc(C(F)(F)F)c(NCc3cccnc3N(C)S(C)(=O)=O)n2)cc1)OCC(C)C [Example 30] | FAK (Homo sapiens) | 1000 to 10000 nM
CCOP(=O)(O)Cc1cccc(Nc2ncc(C(F)(F)F)c(NCc3cccnc3N(C)S(C)(=O)=O)n2)c1 [Example 44] | FAK (Homo sapiens) | > 10000 nM
CN(c1ncccc1CNc1nc(Nc2ccc(CP3(=O)OCCCO3)cc2)ncc1C(F)(F)F)S(C)(=O)=O [Example 31] | FAK (Homo sapiens) | < 1000 nM

###

# studyTarget: FAK (Homo sapiens, UniProt Q05397)
# Sequence (Q05397 whole entry): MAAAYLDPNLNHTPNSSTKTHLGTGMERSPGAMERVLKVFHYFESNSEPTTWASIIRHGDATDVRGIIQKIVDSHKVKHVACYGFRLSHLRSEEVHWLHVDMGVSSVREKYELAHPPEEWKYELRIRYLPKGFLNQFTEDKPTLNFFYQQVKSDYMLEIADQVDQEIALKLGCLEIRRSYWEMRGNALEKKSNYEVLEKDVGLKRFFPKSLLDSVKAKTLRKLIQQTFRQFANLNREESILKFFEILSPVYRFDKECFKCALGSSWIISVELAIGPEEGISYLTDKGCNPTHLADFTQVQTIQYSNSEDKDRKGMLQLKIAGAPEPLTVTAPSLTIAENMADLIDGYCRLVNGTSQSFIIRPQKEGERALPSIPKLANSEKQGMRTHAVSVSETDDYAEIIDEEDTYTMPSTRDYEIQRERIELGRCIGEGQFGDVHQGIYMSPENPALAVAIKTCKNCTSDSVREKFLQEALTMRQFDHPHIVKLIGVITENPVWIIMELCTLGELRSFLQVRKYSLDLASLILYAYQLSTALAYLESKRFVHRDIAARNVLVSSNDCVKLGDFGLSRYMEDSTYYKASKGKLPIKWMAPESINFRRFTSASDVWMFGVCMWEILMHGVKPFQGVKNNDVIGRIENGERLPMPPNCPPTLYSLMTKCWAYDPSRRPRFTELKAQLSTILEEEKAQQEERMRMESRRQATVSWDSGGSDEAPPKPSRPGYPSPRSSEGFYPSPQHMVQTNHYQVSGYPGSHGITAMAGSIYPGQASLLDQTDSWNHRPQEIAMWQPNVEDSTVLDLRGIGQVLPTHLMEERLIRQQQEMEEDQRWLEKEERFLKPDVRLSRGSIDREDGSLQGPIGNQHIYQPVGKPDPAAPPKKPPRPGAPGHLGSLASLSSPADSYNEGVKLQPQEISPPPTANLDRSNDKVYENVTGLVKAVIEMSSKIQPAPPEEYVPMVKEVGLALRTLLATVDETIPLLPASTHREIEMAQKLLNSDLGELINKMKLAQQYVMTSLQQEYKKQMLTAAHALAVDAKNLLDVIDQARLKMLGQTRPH
# assayNotes: Cell-based capture ELISA for inhibition of FAK autophosphorylation [pY397] in MiaPaCa2 cells
# protocolConditions: MIA-PaCa2 cells, + 50% mouse plasma (Table 2); read-out: Mean FAK Cell Mechanistic IC50 + 50% mP MIA-PaCa2
pIC50: −log10 of the molar value.
As shown below, each of these compounds has a reported pIC50 value.

compound | studyTarget | pIC50
CCOP(=O)(OCC)c1cccc(Nc2ncc(C(F)(F)F)c(NCc3cccnc3N(C)S(C)(=O)=O)n2)c1 [Example 39] | FAK (Homo sapiens, UniProt Q05397) | 5.00 to 6.00
CCCCOP(=O)(Cc1cccc(Nc2ncc(C(F)(F)F)c(NCc3cccnc3N(C)S(C)(=O)=O)n2)c1)OCCCC [Example 54] | FAK (Homo sapiens, UniProt Q05397) | < 5.00
CCOC(=O)[C@H]1CC[C@@H](c2ccc(Nc3nc(Nc4ccc(CP(=O)(OCC)OCC)cc4OC)ncc3C(F)(F)F)c3c2CN(C)C3=O)CC1 [Example 87] | FAK (Homo sapiens, UniProt Q05397) | > 6.00
CCCOP(=O)(Cc1ccc(Nc2ncc(C(F)(F)F)c(NCc3cccnc3N(C)S(C)(=O)=O)n2)cc1)OCCC [Example 28] | FAK (Homo sapiens, UniProt Q05397) | > 6.00
CCP(=O)(CC)Cc1cccc(Nc2ncc(C(F)(F)F)c(NCc3cccnc3N(C)S(C)(=O)=O)n2)c1 [Example 11] | FAK (Homo sapiens, UniProt Q05397) | > 6.00
CNC(=O)c1ccccc1Nc1nc(Nc2cccc(CP(C)(C)=O)c2)ncc1C(F)(F)F [Example 17] | FAK (Homo sapiens, UniProt Q05397) | > 6.00
CN(c1ncccc1CNc1nc(Nc2ccc(CP3(=O)OCC(C)(C)CO3)cc2)ncc1C(F)(F)F)S(C)(=O)=O [Example 32] | FAK (Homo sapiens, UniProt Q05397) | > 6.00

Source listed as patent US9096624B2.
